# assayTarget: human α1G T-type channels (Homo sapiens)
# protocol: T-type calcium channel block, whole cell patch clamp, α1G
# conditionSummary: HEK cells stably expressing human α1G; mainly non-inactivated protocol; values above 10,000 nM represented as 10000
Assignment: determine reported pIC50 for the given compounds.
Answers are plain numbers, as −log10 of the molar value.

Example results:
CC(C)(C)c1ccc(S(=O)(=O)NCC(C)(C)S(=O)(=O)c2cccc(C(F)(F)F)c2)cc1: 7.05
CC(C)(C(=O)Nc1ccc(Oc2ccc(F)cc2)cc1)S(=O)(=O)c1cccc(C(F)(F)F)c1: 6.54

Each compound below has a reported value. Please supply its pIC50.
1. CC(C)(C(=O)Nc1nc2ccc(Cl)cc2s1)S(=O)(=O)c1cccc(C(F)(F)F)c1
2. O=S(=O)(CCC(F)(F)F)NC[C@H]1C[C@H](S(=O)(=O)c2cccc(C(F)(F)F)c2)C1
3. CC(C)(CCNC(=O)c1ccc(Oc2ccc(Cl)cc2)cc1)S(=O)(=O)c1cccc(C(F)(F)F)c1

Result:
[6.35, 5.81, 6.54]

---

# assayTarget: human α1G T-type channels (Homo sapiens, UniProt O43497)
# protocol: T-type calcium channel block, whole cell patch clamp, α1G
# conditionSummary: HEK cells stably expressing human α1G; mainly non-inactivated protocol; values above 10,000 nM represented as 10000
pIC50: −log10 of the molar value.
Given measured pIC50, output satisfied if it is greater than or equal to 6 and not satisfied if not.

CC1(NC(=O)CN[C@H]2CC[C@@](F)(S(=O)(=O)c3cccc(C(F)(F)F)c3)CC2)CCC1: not satisfied
CC(C)(CN[C@H]1CC[C@@H](C(F)(F)F)CC1)S(=O)(=O)c1cccc(C(F)(F)F)c1: satisfied
O=C(N[C@H]1CC[C@@H](S(=O)(=O)c2cccc(C(F)(F)F)c2)CC1)c1ccnn1CC(F)(F)F: not satisfied

Task: In plain terms: is recorded pIC50 at least 6 for O=C(N[C@H]1CC[C@](F)(S(=O)(=O)c2cccc(C(F)(F)F)c2)CC1)c1ccc(F)c(C(F)(F)F)c1 ?
Result: not satisfied

---

# Test system: mice
# conditionSummary: mouse, in vivo
endpointLabel: EPILEPSY ROTAROD (% IMPAIRED) 4 hr (%)
Numbers only, in %.

Before answering, review these 4 worked examples.
O=C(NCC1CC(S(=O)(=O)c2cc(F)cc(C(F)(F)F)c2)C1)c1cc(F)cc(Cl)c1 (centres unmarked) [Compound 396]: 0
O=S(=O)(c1cccc(C(F)(F)F)c1)C1CC(c2c[nH]c(C(F)(F)F)n2)C1 (centres unmarked) [Compound 442]: 0
CC(C)(C1CC(NC(=O)c2cn3cc(C(F)(F)F)ccc3n2)C1)S(=O)(=O)c1cccc(C(F)(F)F)c1 (centres unmarked) [Compound 438]: 0
CS(=O)(=O)c1cc(C(F)(F)F)ccc1C(=O)NCC1CC(S(=O)(=O)c2cccc(C(F)(F)F)c2)C1 (centres unmarked) [Compound 356]: 0

Now for another entry.
Task: Any idea what EPILEPSY ROTAROD (% IMPAIRED) 4 hr was measured for O=C(NCC1(O)CCC(S(=O)(=O)c2cccc(C(F)(F)F)c2)CC1)c1ccc(F)c(Cl)c1 (centres unmarked) [Compound 230] ?
Result: 0

---

# assayTarget: human α1G T-type channels (Homo sapiens, UniProt O43497)
# protocol: T-type calcium channel block, whole cell patch clamp, α1G
# conditionSummary: HEK cells stably expressing human α1G; mainly non-inactivated protocol; values above 10,000 nM represented as 10000
endpointLabel: pIC50
Answers are plain numbers, as −log10 of the molar value.

Example entries begin here.
CN(CCc1ccc(Cl)c(Cl)c1)C(=O)C(C)(C)S(=O)(=O)c1cccc(C(F)(F)F)c1: 6.16
O=C(CN[C@H]1C[C@@H](S(=O)(=O)c2cccc(C(F)(F)F)c2)C1)NC1CCC(F)(F)CC1: 6.04

Turning to the following compound.
Task: Endpoint output: pIC50 of CN(CCC(C)(C)S(=O)(=O)c1cccc(C(F)(F)F)c1)C(=O)c1ccc(C(F)(F)F)nc1 . Value?
Result: 6.02

---

Exercise: for every item that follows, state its recorded pIC50.
# assayTarget: CAv1.2 (Homo sapiens, UniProt Q13936)
# protocol: FLIPR data, CAv1.2 channel blocking (Table 6)
# Assay type: cell-based
# conditionSummary: closed state, read-out: CAv1.2 IC50 Closed
pIC50: −log10 of the molar value.

CC(C)([C@H]1C[C@@H](NS(=O)(=O)c2ccc(C(F)(F)F)nc2)C1)S(=O)(=O)c1cccc(C(F)(F)F)c1 [Compound 629]: ≤ 5.00
CC(C)([C@H]1C[C@H](NC(=O)c2ccc(C(F)(F)F)cc2S(C)(=O)=O)C1)S(=O)(=O)c1cc(F)cc(C(F)(F)F)c1 [Compound 592]: ≤ 5.00
O=C(NC[C@H]1C[C@H](S(=O)(=O)c2cccc(OC(F)(F)F)c2)C1)c1ccnc(C(F)(F)F)n1 [Compound 697]: ≤ 5.00

Quick request: pIC50 for each listed item, please.
1. CC(C)([C@H]1C[C@@H](NS(=O)(=O)c2ccc(C(F)(F)F)cc2)C1)S(=O)(=O)c1cc(F)cc(C(F)(F)F)c1 [Compound 598]
2. CC(C)([C@H]1C[C@H](NS(=O)(=O)c2ccc(F)c(C(F)(F)F)c2)C1)S(=O)(=O)c1cccc(C(F)(F)F)c1 [Compound 667]
3. CC(C)([C@H]1C[C@@H](NC(=O)c2ccnc(C(F)(F)F)n2)C1)S(=O)(=O)c1cc(F)cc(C(F)(F)F)c1 [Compound 588]
4. CC(C)([C@H]1C[C@H](NS(=O)(=O)c2ccc(Cl)c(F)c2)C1)S(=O)(=O)c1cc(F)cc(C(F)(F)F)c1 [Compound 607]
5. CNC1(CC(=O)N[C@H]2C[C@@H](C(C)(C)S(=O)(=O)c3cccc(OC(F)(F)F)c3)C2)CCCCC1 [Compound 661]

Result:
[5.03, 5.11, "≤ 5.00", 5.11, "≤ 5.00"]

For each of the compounds below, note its pIC50.
1. CC(C)([C@H]1C[C@@H](NC(=O)c2ccnc(C(F)(F)F)n2)C1)S(=O)(=O)c1cccc(OC(F)(F)F)c1 [Compound 642]
2. CC(C)(C[C@H]1C[C@@H](NC(=O)c2ccc(Cl)cc2S(C)(=O)=O)C1)S(=O)(=O)c1cccc(C(F)(F)F)c1 [Compound 731]
3. CC(C)([C@H]1C[C@@H](NC(=O)c2cc(C(F)(F)F)n[nH]2)C1)S(=O)(=O)c1cc(F)cc(C(F)(F)F)c1 [Compound 587]
4. CC(C)([C@H]1C[C@@H](NC(=O)c2ccc(Cl)cn2)C1)S(=O)(=O)c1cccc(C(F)(F)F)c1 [Compound 578]
5. CC(C)([C@H]1C[C@H](NS(=O)(=O)c2ccc(F)c(Cl)c2)C1)S(=O)(=O)c1cccc(C(F)(F)F)c1 [Compound 664]

Result:
1. ≤ 5.00
2. ≤ 5.00
3. ≤ 5.00
4. 5.04
5. ≤ 5.00

---

# assayTarget: CAv1.2 (Homo sapiens)
# protocol: FLIPR data, CAv1.2 channel blocking (Table 6)
# Type: cell-based
# conditionSummary: inactivated state, read-out: CAv1.2 IC50 Inact.
What IC50 was measured for each of the following?
Answers are plain numbers, in µM.

CC(C)([C@H]1C[C@@H](NS(=O)(=O)c2ccc(C(F)(F)F)nc2)C1)S(=O)(=O)c1cccc(C(F)(F)F)c1 [Compound 629]: 4.66
CC(C)(C[C@H]1C[C@@H](NC(=O)c2ccc(C(F)(F)F)cn2)C1)S(=O)(=O)c1cccc(C(F)(F)F)c1 [Compound 735]: 3.71
CC(C)([C@H]1C[C@@H](NC(=O)c2cc(C(F)(F)F)n[nH]2)C1)S(=O)(=O)c1cccc(OC(F)(F)F)c1 [Compound 639]: 3.4

Task: Entry CC(C)(C[C@H]1C[C@H](NC(=O)c2ccc(C(F)(F)F)cc2)C1)S(=O)(=O)c1cccc(C(F)(F)F)c1 [Compound 719] : reported IC50 = ?
Result: 0.75

---

# assayTarget: N-type calcium channel subunits (α1B, α2δ, and β3a) (Homo sapiens, UniProt Q00975)
# Sequence (Q00975 whole entry): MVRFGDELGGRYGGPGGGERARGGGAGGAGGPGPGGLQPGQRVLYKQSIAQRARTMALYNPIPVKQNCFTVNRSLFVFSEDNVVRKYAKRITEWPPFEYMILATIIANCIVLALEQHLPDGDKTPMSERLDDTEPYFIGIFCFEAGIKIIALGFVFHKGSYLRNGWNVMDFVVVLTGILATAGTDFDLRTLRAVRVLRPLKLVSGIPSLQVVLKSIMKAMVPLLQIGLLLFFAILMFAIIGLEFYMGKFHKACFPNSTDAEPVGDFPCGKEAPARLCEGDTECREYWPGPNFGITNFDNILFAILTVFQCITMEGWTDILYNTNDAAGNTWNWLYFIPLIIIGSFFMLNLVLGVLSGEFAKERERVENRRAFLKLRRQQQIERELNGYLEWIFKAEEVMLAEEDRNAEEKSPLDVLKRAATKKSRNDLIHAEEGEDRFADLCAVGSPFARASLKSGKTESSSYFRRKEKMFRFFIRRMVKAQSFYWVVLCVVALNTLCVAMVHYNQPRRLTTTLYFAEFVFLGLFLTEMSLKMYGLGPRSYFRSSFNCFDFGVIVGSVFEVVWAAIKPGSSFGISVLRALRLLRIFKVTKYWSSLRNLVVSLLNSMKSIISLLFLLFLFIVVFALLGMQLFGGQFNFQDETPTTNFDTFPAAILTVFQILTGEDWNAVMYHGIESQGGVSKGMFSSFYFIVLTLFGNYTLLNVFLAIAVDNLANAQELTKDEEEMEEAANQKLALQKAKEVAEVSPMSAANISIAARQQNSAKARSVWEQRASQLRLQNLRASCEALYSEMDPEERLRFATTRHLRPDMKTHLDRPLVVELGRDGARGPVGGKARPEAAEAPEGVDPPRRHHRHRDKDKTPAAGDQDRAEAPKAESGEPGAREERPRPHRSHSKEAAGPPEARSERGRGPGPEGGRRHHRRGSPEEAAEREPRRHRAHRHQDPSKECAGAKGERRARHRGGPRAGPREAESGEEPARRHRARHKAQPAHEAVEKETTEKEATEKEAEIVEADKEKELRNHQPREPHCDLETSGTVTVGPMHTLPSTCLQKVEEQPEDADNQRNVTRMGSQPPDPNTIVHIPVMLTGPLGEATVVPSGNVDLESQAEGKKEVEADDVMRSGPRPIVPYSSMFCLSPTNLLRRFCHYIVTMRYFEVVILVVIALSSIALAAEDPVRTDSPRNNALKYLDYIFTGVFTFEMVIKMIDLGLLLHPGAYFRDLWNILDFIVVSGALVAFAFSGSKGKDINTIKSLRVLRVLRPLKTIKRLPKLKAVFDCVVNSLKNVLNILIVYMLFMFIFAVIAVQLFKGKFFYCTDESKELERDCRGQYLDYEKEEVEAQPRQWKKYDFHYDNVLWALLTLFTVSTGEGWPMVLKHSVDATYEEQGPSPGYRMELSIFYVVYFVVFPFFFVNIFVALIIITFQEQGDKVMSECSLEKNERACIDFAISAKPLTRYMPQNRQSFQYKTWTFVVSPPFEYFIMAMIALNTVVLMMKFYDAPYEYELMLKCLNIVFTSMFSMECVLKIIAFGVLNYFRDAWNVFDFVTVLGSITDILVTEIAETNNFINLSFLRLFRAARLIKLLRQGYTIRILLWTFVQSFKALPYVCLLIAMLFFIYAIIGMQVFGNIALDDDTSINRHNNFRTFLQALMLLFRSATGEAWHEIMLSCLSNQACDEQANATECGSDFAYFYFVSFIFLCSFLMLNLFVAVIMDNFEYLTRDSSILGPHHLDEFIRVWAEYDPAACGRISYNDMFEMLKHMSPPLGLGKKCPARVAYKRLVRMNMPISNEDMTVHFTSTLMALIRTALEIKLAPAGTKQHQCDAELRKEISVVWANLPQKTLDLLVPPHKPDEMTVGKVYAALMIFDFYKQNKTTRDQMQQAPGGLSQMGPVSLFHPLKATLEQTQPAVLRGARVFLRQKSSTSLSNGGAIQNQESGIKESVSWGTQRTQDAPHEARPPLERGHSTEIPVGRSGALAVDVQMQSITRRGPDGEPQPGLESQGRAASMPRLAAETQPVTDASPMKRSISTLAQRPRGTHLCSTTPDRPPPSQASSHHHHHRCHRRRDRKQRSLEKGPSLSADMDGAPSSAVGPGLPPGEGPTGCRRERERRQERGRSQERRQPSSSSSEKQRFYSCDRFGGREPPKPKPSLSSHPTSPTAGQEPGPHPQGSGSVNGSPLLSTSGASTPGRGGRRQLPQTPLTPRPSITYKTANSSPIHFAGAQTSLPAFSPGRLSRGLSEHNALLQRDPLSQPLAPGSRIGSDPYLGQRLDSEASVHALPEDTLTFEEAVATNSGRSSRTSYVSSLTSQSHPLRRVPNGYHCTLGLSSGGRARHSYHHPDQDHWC
# Sequence (P54289 25-1103 partner): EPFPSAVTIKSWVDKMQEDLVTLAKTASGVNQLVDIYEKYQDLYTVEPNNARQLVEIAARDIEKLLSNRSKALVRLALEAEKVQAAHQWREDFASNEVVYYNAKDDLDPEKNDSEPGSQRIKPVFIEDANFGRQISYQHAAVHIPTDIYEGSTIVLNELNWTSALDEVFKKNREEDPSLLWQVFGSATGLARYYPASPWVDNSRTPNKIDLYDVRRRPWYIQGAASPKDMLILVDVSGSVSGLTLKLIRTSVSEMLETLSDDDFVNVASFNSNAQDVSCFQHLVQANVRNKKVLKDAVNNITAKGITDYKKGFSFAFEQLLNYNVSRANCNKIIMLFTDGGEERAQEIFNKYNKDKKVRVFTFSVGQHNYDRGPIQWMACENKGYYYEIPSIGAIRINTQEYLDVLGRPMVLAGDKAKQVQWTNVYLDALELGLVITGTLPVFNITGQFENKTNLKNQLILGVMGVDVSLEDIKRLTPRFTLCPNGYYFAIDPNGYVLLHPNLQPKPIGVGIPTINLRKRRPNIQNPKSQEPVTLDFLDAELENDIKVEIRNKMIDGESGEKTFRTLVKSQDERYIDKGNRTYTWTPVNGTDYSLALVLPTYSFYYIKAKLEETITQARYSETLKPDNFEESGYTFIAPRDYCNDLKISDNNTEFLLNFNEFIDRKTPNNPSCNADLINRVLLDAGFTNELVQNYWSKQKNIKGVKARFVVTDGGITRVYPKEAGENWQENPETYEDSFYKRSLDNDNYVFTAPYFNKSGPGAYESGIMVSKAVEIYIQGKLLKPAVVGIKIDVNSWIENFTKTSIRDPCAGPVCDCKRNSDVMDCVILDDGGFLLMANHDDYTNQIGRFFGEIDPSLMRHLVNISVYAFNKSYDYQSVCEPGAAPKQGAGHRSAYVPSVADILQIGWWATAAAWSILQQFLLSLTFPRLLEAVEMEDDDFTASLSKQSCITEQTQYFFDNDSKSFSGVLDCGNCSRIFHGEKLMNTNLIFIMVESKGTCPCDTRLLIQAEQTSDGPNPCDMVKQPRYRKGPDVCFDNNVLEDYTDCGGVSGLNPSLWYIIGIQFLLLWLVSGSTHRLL
# Sequence (P54284 whole entry partner): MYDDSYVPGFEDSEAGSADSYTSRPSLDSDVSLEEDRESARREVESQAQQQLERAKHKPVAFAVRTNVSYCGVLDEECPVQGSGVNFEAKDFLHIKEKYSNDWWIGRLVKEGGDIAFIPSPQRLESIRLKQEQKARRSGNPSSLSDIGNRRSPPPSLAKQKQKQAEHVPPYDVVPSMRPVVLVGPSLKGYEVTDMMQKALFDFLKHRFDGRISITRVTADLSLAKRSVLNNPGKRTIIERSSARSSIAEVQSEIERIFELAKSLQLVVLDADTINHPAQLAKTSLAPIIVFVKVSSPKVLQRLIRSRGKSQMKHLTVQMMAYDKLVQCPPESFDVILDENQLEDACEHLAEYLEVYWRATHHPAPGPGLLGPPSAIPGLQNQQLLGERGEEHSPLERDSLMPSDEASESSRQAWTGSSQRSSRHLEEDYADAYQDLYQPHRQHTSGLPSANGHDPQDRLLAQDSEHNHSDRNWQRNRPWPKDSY
# protocol: Block of Cav2.2 channel, whole cell voltage clamp, manual and PatchXpress
# Assay type: cell-based
# conditionSummary: Table 5; table follows Assay Example 3 (whole cell voltage clamp / PatchXpress); assay not given
Cut-off 700 nM on IC50: below means criterion met, at or above means criterion not met.

Answered examples (10):
O=C(Nc1cc(C(F)(F)F)ccn1)[C@H]1C[C@H](S(=O)(=O)c2cccc(C(F)(F)F)c2)C1 [Compound 409]: criterion not met
O=C(N[C@H]1CC[C@@H](S(=O)(=O)c2cccc(C(F)(F)F)c2)CC1)c1cncc(C(F)(F)F)c1 [Compound 203]: criterion met
O=C(CN[C@H]1CC[C@@H](S(=O)(=O)c2cccc(C(F)(F)F)c2)CC1)NC1CCCCC1 [Compound 56]: criterion met
Cn1nc(C(F)(F)F)cc1C(=O)NC[C@H]1CC[C@@H](S(=O)(=O)c2cccc(C(F)(F)F)c2)CC1 [Compound 32]: criterion met
O=C(Nc1cccc(C(F)(F)F)n1)[C@H]1C[C@H](S(=O)(=O)c2cccc(C(F)(F)F)c2)C1 [Compound 411]: criterion not met
CC(C)(N)CN(C(=O)C(F)(F)F)[C@H]1CC[C@@](F)(S(=O)(=O)c2cccc(C(F)(F)F)c2)CC1 [Compound 306]: criterion met
O=C(N[C@H]1CC[C@](F)(S(=O)(=O)c2cccc(OC(F)(F)F)c2)CC1)c1ccc(F)c(Cl)c1 [Compound 250]: criterion not met
CC1(NC(=O)c2ccc(F)c(Cl)c2)CCC(S(=O)(=O)c2cccc(C(F)(F)F)c2)CC1 (stereo not shown) [Compound 310]: criterion not met
CC1(NC(=O)c2ccc(C(F)(F)F)cn2)CCC(S(=O)(=O)c2cccc(C(F)(F)F)c2)CC1 (stereo not shown) [Compound 312]: criterion not met
O=C(N[C@H]1CC[C@@H](CS(=O)(=O)c2cccc(C(F)(F)F)c2)CC1)c1ccc(Cl)c(F)c1 [Compound 141]: criterion met

Task: is_below(IC50, 700 nM) for O=C(NC[C@]1(O)CC[C@@H](S(=O)(=O)c2cccc(C(F)(F)F)c2)CC1)c1cc(F)cc(Cl)c1 [Compound 228] ?
Result: criterion not met

Task: Please state whether IC50 is below 700 nM for O=C(CN[C@H]1CC[C@H](S(=O)(=O)c2cccc(C(F)(F)F)c2)CC1)NCC(F)(F)F [Compound 68]
Result: criterion not met

Task: Say whether its IC50 is strictly beneath 700 nM. Entry: Cn1cc(C(=O)N[C@H]2CC[C@H](S(=O)(=O)c3cccc(C(F)(F)F)c3)CC2)c(C(F)(F)F)n1 [Compound 64]
Result: criterion met

Task: I wonder whether O=C(N[C@H]1CC[C@@](F)(S(=O)(=O)c2cccc(C(F)(F)F)c2)CC1)c1ccc(Cl)c(Cl)c1 [Compound 269] has IC50 below 700 nM. Can you tell?
Result: criterion met

Task: Hi there! Is IC50 for CC1(C(=O)N[C@H]2CC[C@@](F)(S(=O)(=O)c3cccc(C(F)(F)F)c3)CC2)CC1 [Compound 303] below 700 nM, do you know?
Result: criterion met

Task: Just wondering, is IC50 of CCN(CC)C(=O)CN[C@H]1CC[C@H](CS(=O)(=O)c2cccc(C(F)(F)F)c2)CC1 [Compound 116] below 700 nM?
Result: criterion not met

Task: A record lists O=C(NC[C@H]1C[C@H](S(=O)(=O)c2cc(F)cc(C(F)(F)F)c2)C1)c1ccc(C(F)(F)F)cn1 [Compound 390] . Is its IC50 below 700 nM?
Result: criterion not met

Task: Answer whether the molecule O=C(N[C@H]1CC[C@@](F)(S(=O)(=O)c2cc(F)cc(C(F)(F)F)c2)CC1)c1ccc(F)c(Cl)c1 [Compound 329] has IC50 strictly less than 700 nM
Result: criterion met

Task: Record CN(C(=O)c1cn2cc(C(F)(F)F)ccc2n1)[C@H]1CC[C@@](F)(S(=O)(=O)c2cc(F)cc(C(F)(F)F)c2)CC1 [Compound 338] : is its IC50 strictly below 700 nM?
Result: criterion not met

Task: Quick check: does CC1(NC(=O)c2ncc(C(F)(F)F)cc2S(C)(=O)=O)CCC(S(=O)(=O)c2cccc(C(F)(F)F)c2)CC1 (stereo not shown) [Compound 317] have IC50 under 700 nM?
Result: criterion not met

Task: # check: IC50 < 700 nM for CN(C(=O)CN[C@H]1CC[C@@](F)(S(=O)(=O)c2cccc(C(F)(F)F)c2)CC1)C(C)(C)C [Compound 88]
Result: criterion met

Task: hey, is IC50 for O=C(N[C@H]1CC[C@@](F)(S(=O)(=O)c2cccc(C(F)(F)F)c2)CC1)C1CCCC1 [Compound 277] lower than 700 nM or not?
Result: criterion met

Task: Dear reviewer, please state whether O=C(CN[C@H]1CC[C@@H](S(=O)(=O)c2cccc(C(F)(F)F)c2)CC1)Nc1ccccn1 [Compound 57] has IC50 strictly beneath 700 nM.
Result: criterion not met

Task: Regarding CC([C@H]1C[C@H](NC(=O)c2ccc(F)c(C(F)(F)F)c2)C1)S(=O)(=O)c1cccc(C(F)(F)F)c1 (stereo partly shown) [Compound 433] , kindly confirm whether its IC50 is beneath 700 nM.
Result: criterion met

Reference source: patent US20120245137A1
